From: ChEMBL document CHEMBL1811809

# TEST_SUMMARY: Stability of the compound in MEM assessed as degradation half life at 37 degC by HPLC analysis
# Format: physicochemical
Collected half-life values appear next to each entry.

>  <SMILES_CODE>
CC(=O)OC[C@H]1O[C@@H](NC(=O)CCCCCNC(=O)n2cc(F)c(=O)[nH]c2=O)[C@H](F)[C@@H](OC(C)=O)[C@@H]1OC(C)=O

>  <half-life (min)>
8

$$$$
>  <SMILES_CODE>
CC(=O)OC[C@H]1O[C@@H](NC(=O)CCCNC(=O)n2cc(F)c(=O)[nH]c2=O)[C@H](F)[C@@H](OC(C)=O)[C@@H]1OC(C)=O

>  <half-life (min)>
6

$$$$
>  <SMILES_CODE>
CC(=O)OC[C@H]1O[C@@H](NC(=O)CNC(=O)n2cc(F)c(=O)[nH]c2=O)[C@H](F)[C@@H](OC(C)=O)[C@@H]1OC(C)=O

>  <half-life (min)>
2

$$$$
